pIC50: −log10 of the molar value.
A set of compounds tested on Tyrosine-protein kinase Mer (Homo sapiens, UniProt Q12866), with measured pIC50:
measure_name: pIC50

Here are 2 compounds together with their reported answers.
test_smiles: Cc1noc(C)c1-c1ccc(-c2nnc(N(C)Cc3ccc4nccn4c3)o2)cc1
tgt: Tyrosine-protein kinase Mer (Homo sapiens, UniProt Q12866)
Sequence (Q12866 whole entry): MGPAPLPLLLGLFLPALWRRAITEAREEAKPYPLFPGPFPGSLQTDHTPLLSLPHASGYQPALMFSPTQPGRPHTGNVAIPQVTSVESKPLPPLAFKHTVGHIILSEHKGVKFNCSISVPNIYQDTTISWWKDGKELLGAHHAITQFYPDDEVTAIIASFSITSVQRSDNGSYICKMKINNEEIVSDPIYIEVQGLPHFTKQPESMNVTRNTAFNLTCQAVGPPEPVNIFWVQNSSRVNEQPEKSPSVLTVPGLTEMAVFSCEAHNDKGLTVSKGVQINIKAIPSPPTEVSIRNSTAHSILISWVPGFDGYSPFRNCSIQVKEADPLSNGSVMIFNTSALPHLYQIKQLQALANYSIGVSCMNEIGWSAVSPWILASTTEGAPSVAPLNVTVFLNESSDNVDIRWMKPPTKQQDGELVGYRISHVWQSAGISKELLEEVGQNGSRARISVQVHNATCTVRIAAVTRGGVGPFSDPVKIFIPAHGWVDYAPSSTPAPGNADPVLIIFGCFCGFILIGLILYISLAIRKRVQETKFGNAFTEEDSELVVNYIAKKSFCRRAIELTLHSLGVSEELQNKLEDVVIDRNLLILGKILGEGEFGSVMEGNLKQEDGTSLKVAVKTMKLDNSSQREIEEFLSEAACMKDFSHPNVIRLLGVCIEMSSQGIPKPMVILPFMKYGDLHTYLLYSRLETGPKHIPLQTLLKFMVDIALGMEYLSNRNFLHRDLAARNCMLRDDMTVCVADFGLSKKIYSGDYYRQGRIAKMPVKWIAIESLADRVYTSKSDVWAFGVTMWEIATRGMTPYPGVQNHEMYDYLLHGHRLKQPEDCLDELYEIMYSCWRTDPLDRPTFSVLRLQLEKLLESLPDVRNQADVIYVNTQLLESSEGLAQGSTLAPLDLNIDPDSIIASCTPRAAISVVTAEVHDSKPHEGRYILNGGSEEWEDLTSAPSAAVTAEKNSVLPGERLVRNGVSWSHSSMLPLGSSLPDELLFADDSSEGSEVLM
measure_name: pIC50
recorded_result: 6.70

test_smiles: CN(Cc1ccc2nccn2c1)c1nnc(-c2ccc(-c3ccccc3)cc2)o1
tgt: Tyrosine-protein kinase Mer (Homo sapiens, UniProt Q12866)
measure_name: pIC50
recorded_result: 7.40

(I) Cc1cc(-c2c(C)nn(C(F)F)c2C)ccc1-c1nnc(N(C)Cc2ccc3nccn3c2)o1
(II) Cc1cc(-c2c(C)nn(C)c2C)ccc1-c1nnc(N(C)Cc2ccc3nccn3c2)o1
q: Returns: the argument ( I or II ) having the larger pIC50. # answer = label of selected item
a: II

(P) CN(Cc1ccc2nccn2c1)c1nnc(-c2ccccc2)o1
(Q) COc1cc(-c2c(C)nn(C)c2C)ccc1-c1nnc(N(C)Cc2ccc3nccn3c2)o1
(R) Cc1nn(C)c(C)c1-c1ccc(-c2nnc(N(C)Cc3ccc4nccn4c3)o2)cc1
(S) Cc1cc(-c2c(C)nn(C)c2C)cnc1-c1nnc(N(C)Cc2ccc3nccn3c2)o1
q: List the 4 entries from lowest pIC50 to highest pIC50 value. Returns: the labels arranged in the requested order.
a: P, S, R, Q
(P: 4.80, S: 7.00, R: 7.50, Q: 7.80)

(P) Cc1cc(-c2c(C)nc(C)n2C)ccc1-c1nnc(N(C)Cc2ccc3nccn3c2)o1
(Q) Cc1nn(C)c(C)c1-c1ccc(-c2nnc(N(C)Cc3ccc4nccn4c3)o2)c(Cl)c1
q: Returns: the argument ( P or Q ) having the larger pIC50. # answer = label of selected item
a: Q

(1) Cc1cc(-c2c(C)n[nH]c2C)ccc1-c1nnc(N(C)Cc2ccc3nccn3c2)o1
(2) Cc1cc(-c2cnn(C)c2C)ccc1-c1nnc(N(C)Cc2ccc3nccn3c2)o1
q: Returns: the argument ( 1 or 2 ) having the larger pIC50. # answer = label of selected item
a: 2
